# ASSAY INFO: Drug interaction study with itraconazole (CYP3A4 inhibitor): plasma PK of i.v. eravacycline and metabolites
# Type: in vivo, human
# RUN CONDITIONS: human, plasma, iv; day 10, eravacycline 1 mg/kg i.v. with itraconazole, mean ± SD, n = 10
REPORTED ENDPOINT: Cmax (ng/mL)
Answers are plain numbers, in ng/mL.

Would you mind telling me what Cmax value was observed for CN(C)[C@@H]1C(O)=C(C(N)=O)C(=O)[C@@]2(O)C(O)=C3C(=O)c4c(O)c(NC(=O)CN5CCCC5)cc(F)c4C[C@H]3C[C@@H]12 [eravacycline] ?
1160

* * *

# ASSAY INFO: Drug interaction study with rifampin (CYP3A4 inducer): plasma PK of i.v. eravacycline and metabolites
# Format: in vivo, human
# RUN CONDITIONS: human, plasma, intravenous, 1 mg/kg; day 1, eravacycline alone, mean ± SD, n = 12
# Protocol: Two single-center, open-label studies were conducted to evaluate the effects of itraconazole (CYP3A4 inhibitor) and rifampin (CYP3A4 inducer) on the pharmacokinetics of i.v. eravacycline in healthy subjects. (ii) Study design. […] Concentrations of eravacycline, TP-498, and TP-6208 in human plasma samples were measured by LC-tandem MS after solid-phase extraction over a calibration range of 5.00 to 500 ng/ml. […]
REPORTED ENDPOINT: half-life (h)
One number for each entry, in h.

Entry under review: CN(C)[C@@H]1C(O)=C(C(N)=O)C(=O)[C@@]2(O)C(O)=C3C(=O)c4c(O)c(NC(=O)CN5CCCC5)cc(F)c4C[C@H]3C[C@@H]12 . Reported half-life?
15
